Biological target: catalytic domain of human Bub1 (amino acids 704-1085) (Homo sapiens, UniProt O43683)
Construct: catalytic domain of human Bub1 (amino acids 704-1085); His6 (N); made in house; host or cells: Hi5 insect cells
Sequence (O43683 704-1085): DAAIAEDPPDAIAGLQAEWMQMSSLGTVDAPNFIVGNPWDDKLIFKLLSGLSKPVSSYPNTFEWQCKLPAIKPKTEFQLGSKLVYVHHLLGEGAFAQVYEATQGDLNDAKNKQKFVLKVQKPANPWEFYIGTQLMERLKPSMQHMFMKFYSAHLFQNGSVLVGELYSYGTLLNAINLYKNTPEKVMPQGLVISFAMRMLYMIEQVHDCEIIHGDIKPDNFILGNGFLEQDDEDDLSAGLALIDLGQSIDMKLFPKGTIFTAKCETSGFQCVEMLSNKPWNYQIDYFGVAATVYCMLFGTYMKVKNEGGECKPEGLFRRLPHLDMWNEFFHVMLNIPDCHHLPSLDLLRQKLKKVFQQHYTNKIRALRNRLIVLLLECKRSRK
Assay: Bub1 kinase assay (TR-FRET)
Type: biochemical
Details: Biological Assay 1: Bub1 kinase assay median IC50, 10 μM ATP
log10 IC50 reference
The base-10 logarithm of IC50, taken with IC50 in nM, is what appears here.

**Query** Dear colleague, I am looking for the recorded log10 IC50 of the following molecule: CC(=O)Nc1cc(Nc2nc(-c3nn(Cc4c(F)cc(O)cc4F)c4ccccc34)nc3c2CCC3)ccn1
**Result** 0.97

**Query** And CCOc1cc(F)c(Cn2nc(-c3nc(Nc4ccncc4)cc(C(C)C)n3)c3ccccc32)c(F)c1 ?
**Result** 1.23

**Query** And CCOc1cc(F)c(Cn2nc(-c3nc4c(c(Nc5ccncc5C(=O)O)n3)CCC4)c3ccccc32)c(F)c1 ?
**Result** 1.82

**Query** And CCOc1cc(F)c(Cn2nc(-c3nc(Nc4ccnc(C)n4)cc(-c4sc(C)nc4C)n3)c3ccccc32)c(F)c1 ?
**Result** 3.36

**Query** And CC(=O)Nc1cc(Nc2nc(-c3nn(Cc4c(F)cc(OCCO)cc4F)c4ccccc34)nc3c2CCC(C)(C)C3)ccn1 ?
**Result** 1.15

More entries:
**Query** Dear colleague, I am looking for the recorded log10 IC50 of the following molecule: CC(=O)Nc1cc(Nc2nc(-c3nn(Cc4c(F)cc(OCCO)cc4F)c4ccccc34)nc3c2CCC3)ccn1
**Result** 1.00

**Query** And COCCOc1cc(F)c(Cn2nc(-c3nc4c(c(Nc5cc(C)ncc5C)n3)CNC4)c3ccccc32)c(F)c1 ?
**Result** 2.26

====

Target: catalytic domain of human Bub1 (amino acids 704-1085) (Homo sapiens, UniProt O43683)
Construct: catalytic domain of human Bub1 (amino acids 704-1085); His6 (N); made in house; host or cells: Hi5 insect cells
Experiment: Bub1 kinase assay (TR-FRET)
Type: biochemical
Settings: 10 μM ATP, read-out: Biological Assay 1: Bub1 kinase assay median IC50
IC50 reference
Write the value in µM as a bare number.

**Query** Dear colleague, I am looking for the recorded IC50 of the following compound: CCOc1cc(F)c(Cn2nc(-c3nc4c(c(Nc5ccncc5C)n3)CCCC4)c3ccccc32)c(F)c1
**Result** 0.007

**Query** And CCOc1cc(F)c(Cn2nc(-c3nc(CN4CCOCC4)cc(Nc4ccncn4)n3)c3ccccc32)c(F)c1 ?
**Result** 0.0052

**Query** And CCOc1cc(F)c(Cn2nc(-c3ncc(OCCN)c(Nc4ccncc4)n3)c3ccccc32)c(F)c1 [Example 3-4-1, reference compound] ?
**Result** 0.0034

**Query** And CCOc1cc(F)c(Cn2nc(-c3nc4c(c(Nc5ccncc5)n3)CCC4)c3ccccc32)c(F)c1 ?
**Result** 0.012

**Query** And CCOc1cc(F)c(Cn2nc(-c3nc(CN4CCOCC4)cc(Nc4ccnc(C)c4)n3)c3ccccc32)c(F)c1 ?
**Result** 0.023

More entries:
**Query** Dear colleague, I am looking for the recorded IC50 of the following compound: CCOc1cc(F)c(Cn2nc(-c3nc(C)cc(Nc4ccncc4C(N)=O)n3)c3ccccc32)c(F)c1
**Result** 0.0055

**Query** And Cc1cc(Nc2nc(-c3nn(Cc4c(F)cc(OCCO)cc4F)c4ccccc34)nc3c2CCC3)c(C)cn1 ?
**Result** 0.066
